- System: K-562 (human chronic myelogenous leukemia)
- Experimental Protocol: Cytotoxic activity, alamar blue assay, K-562
- Format: cell-based
- Assay Setup: Homo sapiens, K562, 72 h
pIC50: −log10 of the molar value.

{"Chemical Structure": "COc1cc(/C=C/C(=O)N2CCC=CC2=O)cc(OC)c1OC", "System": "K-562 (human chronic myelogenous leukemia)", "pIC50": 4.73}

----------
- System: PBMC (human peripheral blood mononuclear cells)
- Experimental Protocol: Cytotoxic activity, alamar blue assay, PBMC non-cancer cells
- Type: cell-based
- Assay Setup: PBMC non-cancer cells, 72h of incubation, alamar blue; with 95% confidence interval; read-out: IC50

{"Chemical Structure": "O=C1[O][Pt]2([NH][C@@H]3CCCC[C@H]3[NH]2)[O]C1=O", "IC50 (µM)": 9.4}

----------
- Tested on: PBMC (human peripheral blood mononuclear cells)
- Experimental Protocol: Cytotoxic activity, alamar blue assay, PBMC non-cancer cells
- Type: cell-based
- Assay Setup: Homo sapiens, PBMC, 72 h
pIC50: −log10 of the molar value.
Attribute Measured: pIC50

{"Chemical Structure": "COc1cc(/C=C/C(=O)N2CCC=CC2=O)cc(OC)c1OC", "System": "PBMC (human peripheral blood mononuclear cells)", "Attribute Measured": "pIC50", "Measured Result": 4.47}

----------
- Test system: B16-F10 (murine melanoma)
- Experimental Protocol: Cytotoxic activity, alamar blue assay, B16-F10
- Format: cell-based
- Assay Setup: Mus musculus; B16-F10, 72h of incubation, alamar blue; with 95% confidence interval
pIC50: −log10 of the molar value.

{"Molecule": "COc1cccc2c1C(=O)c1c(O)c3c(c(O)c1C2=O)C[C@@](O)(C(=O)CO)C[C@@H]3O[C@H]1C[C@H](N)[C@H](O)[C@H](C)O1 [Doxorubicin]", "pIC50": 7.70}

----------
- System: MRC-5 (human lung fibroblast)
- Experimental Protocol: Cytotoxic activity, alamar blue assay, MRC-5 non-cancer cells
- Type: cell-based
- Assay Setup: Homo sapiens, MRC5, 72 h

{"Compound": "COc1cc(/C=C/C(=O)N2CCC=CC2=O)cc(OC)c1OC [Piplartine]", "Units Text": "µM", "IC50": 17.3}

----------
- System: HepG2 (human hepatocellular carcinoma)
- Experimental Protocol: Cytotoxic activity, alamar blue assay, HepG2
- Format: cell-based
- Assay Setup: Homo sapiens, HepG2, 72 h

{"Chemical Structure": "COc1cc(/C=C/C(=O)N2CCC=CC2=O)cc(OC)c1OC", "System": "HepG2 (human hepatocellular carcinoma)", "IC50, µM": 6.3}

----------
- Tested on: MRC-5 (human lung fibroblast)
- Experimental Protocol: Cytotoxic activity, alamar blue assay, MRC-5 non-cancer cells
- Type: cell-based
- Assay Setup: Homo sapiens, MRC5; MRC-5 non-cancer cells, 72h of incubation, alamar blue; with 95% confidence interval; read-out: IC50
Attribute Measured: IC50 (nM)

{"Chemical Structure": "COc1cccc2c1C(=O)c1c(O)c3c(c(O)c1C2=O)C[C@@](O)(C(=O)CO)C[C@@H]3O[C@H]1C[C@H](N)[C@H](O)[C@H](C)O1", "System": "MRC-5 (human lung fibroblast)", "Attribute Measured": "IC50", "Units Text": "nM", "Measured Result": 1300}

----------
- System: SCC-4 (human oral squamous cell carcinoma)
- Experimental Protocol: Cytotoxic activity, alamar blue assay, SCC-4
- Assay type: cell-based
- Assay Setup: SCC-4, 72h of incubation, alamar blue; with 95% confidence interval

{"Chemical Structure": "O=C1[O][Pt]2([NH][C@@H]3CCCC[C@H]3[NH]2)[O]C1=O", "Units Text": "µM", "IC50": 7.7}
